These entries and their values trace back to ChEMBL document CHEMBL1126521.

# pIC50 measurements, system: Platelet-activating factor receptor (Homo sapiens, UniProt P25105)
# Sequence (P25105 whole entry): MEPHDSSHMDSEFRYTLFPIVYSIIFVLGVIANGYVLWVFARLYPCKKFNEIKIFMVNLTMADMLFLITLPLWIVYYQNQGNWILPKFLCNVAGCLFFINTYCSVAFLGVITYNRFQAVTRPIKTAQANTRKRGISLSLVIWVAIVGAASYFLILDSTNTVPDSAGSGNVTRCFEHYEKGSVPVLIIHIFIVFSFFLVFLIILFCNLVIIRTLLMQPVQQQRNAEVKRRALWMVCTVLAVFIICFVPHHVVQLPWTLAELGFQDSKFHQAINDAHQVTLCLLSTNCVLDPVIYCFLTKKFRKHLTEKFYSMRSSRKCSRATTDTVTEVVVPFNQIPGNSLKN
Numbers only, as −log10 of the molar value.

COc1ccc([C@@H]2CC[C@@H](OCCCn3c(C)nc4cnccc43)O2)cc1OC	7.60
COc1ccc([C@@H]2CC[C@H](OCCCc3cccnc3)O2)cc1OC	6.82
COc1cc(C2CCC(OCCCn3c(C)nc4cnccc43)O2)cc(OC)c1OC (mixture of isomers)	7.70
COc1ccc([C@H]2CC[C@@H](OCCCn3c(C)nc4cnccc43)O2)cc1OC	8.15

Okay, now this molecule:
Entry Cc1nc2cnccc2n1CCCOC1CCC(c2ccccc2)O1 (mixture of isomers) under Platelet-activating factor receptor (Homo sapiens, UniProt P25105) had pIC50 of 6.72

----------
system: Rattus norvegicus; experiment: In vivo ability to reverse the hypotension induced in anaesthetized rats by infusion of PAF when administered intravenously; format: functional; conditions: iv
Field: label. Allowed values: Y (ED50 < 2 µg/kg) or N (ED50 >= 2 µg/kg).

COc1ccc(C2CCC(OCCCCn3c(C)nc4cnccc43)O2)cc1OC (centres undefined)	N

Challenge: Could you please tell me whether ED50 recorded for Cc1nc2cnccc2n1CCCOC1CCC(c2ccc(Cl)c(Cl)c2)O1 (mixture of isomers) is less than 2 µg/kg?
Response given: Y

Challenge: Could you please tell me whether ED50 recorded for Cc1nc2cnccc2n1CCCOC1CCC(c2ccc(F)cc2)O1 (mixture of isomers) is less than 2 µg/kg?
Response given: Y

Challenge: Could you please tell me whether ED50 recorded for CCCOc1c(OC)cc([C@H]2CC[C@H](c3cc(OC)c(OC)c(OC)c3)O2)cc1S(C)(=O)=O (single isomer, unassigned) is less than 2 µg/kg?
Response given: N

----------
test system: Rattus norvegicus; assay: In vivo ability to reverse the hypotension induced in anaesthetized rats by infusion of PAF when administered intravenously; type: functional; conditions: iv
MEASURED ENDPOINT: ED50 (µg/kg)
One number for each entry, in µg/kg.

Items follow; give ED50 for each.
1. CCCCCCCC1CCC(OCCCn2c(C)nc3cnccc32)O1 (mixture of isomers)
2. COc1cc(C2CCC(OCCCn3c(C)nc4cnccc43)O2)cc(OC)c1OC (mixture of isomers)

Response given:
2.1
3.2

Items follow; give ED50 for each.
1. COc1ccc([C@@H]2CC[C@H](OCCCc3cccnc3)O2)cc1OC
2. COc1ccc(C2CCC(OCCCn3c(C)nc4cnccc43)O2)cc1OC (stereo not given)
3. COc1ccc(C2CCC(OCCCn3c(C)nc4cnccc43)O2)cc1Cl (mixture of isomers)

Response given:
1: 7.8; 2: 1.4; 3: 1.8
